Molecular target: ETS1 (UniProt P14921)
Sequence: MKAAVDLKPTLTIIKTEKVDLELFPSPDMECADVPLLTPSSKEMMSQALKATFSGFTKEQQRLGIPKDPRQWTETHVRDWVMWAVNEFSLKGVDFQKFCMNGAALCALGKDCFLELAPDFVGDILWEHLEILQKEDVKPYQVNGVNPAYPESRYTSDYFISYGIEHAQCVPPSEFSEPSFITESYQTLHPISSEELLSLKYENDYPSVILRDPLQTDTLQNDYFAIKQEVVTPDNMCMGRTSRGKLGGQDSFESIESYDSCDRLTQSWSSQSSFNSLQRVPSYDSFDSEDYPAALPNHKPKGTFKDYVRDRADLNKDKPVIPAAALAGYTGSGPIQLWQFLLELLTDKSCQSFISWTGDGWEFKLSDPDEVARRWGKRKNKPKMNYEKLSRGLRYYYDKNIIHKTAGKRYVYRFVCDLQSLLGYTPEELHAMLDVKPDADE
Assay: ETS1 binding intensity (PBM fluorescence), ETS1 alone (arbitrary fluorescence units); higher = stronger binding
Conditions: ETS1 concentration 1 nM; RUNX1 concentration 0 nM
VALUE TYPE: ETS1 binding intensity
The answer should be a number; do not append a unit.

> print(dat)
                        record.sequence              value.type  measurement
1  GCTCCCTGGACAGGATGTGGTGCCGAGTAAACAGCT  ETS1 binding intensity         4470
2  CGGTGGCTTCCGGCCCATGGCGGTGGTTGGTGACTC  ETS1 binding intensity          807
3  CGAGTAGAGATAGCAGGAAGTGGTTTATTCTGAGGT  ETS1 binding intensity         6000
4  AGCTTGACGAAGGCTTCCTGTGGTTTGGGTTGATGT  ETS1 binding intensity          486
5  TTTCTCTTCCTGTTTCCACCCTGACCACAGCCAGCT  ETS1 binding intensity          476

Returns the measured ETS1 binding intensity for the input sequence. Input: "ATAGTCTCTTCCTGTGTTGCAAACCACAGGTCCACC"
743

Returns the measured ETS1 binding intensity for the input sequence. Input: "CGCCGGATGCATAAAAGACTGGCTGCGGTGGCTCAG"
604

---

Molecular target: ETS1 (UniProt P14921)
Sequence: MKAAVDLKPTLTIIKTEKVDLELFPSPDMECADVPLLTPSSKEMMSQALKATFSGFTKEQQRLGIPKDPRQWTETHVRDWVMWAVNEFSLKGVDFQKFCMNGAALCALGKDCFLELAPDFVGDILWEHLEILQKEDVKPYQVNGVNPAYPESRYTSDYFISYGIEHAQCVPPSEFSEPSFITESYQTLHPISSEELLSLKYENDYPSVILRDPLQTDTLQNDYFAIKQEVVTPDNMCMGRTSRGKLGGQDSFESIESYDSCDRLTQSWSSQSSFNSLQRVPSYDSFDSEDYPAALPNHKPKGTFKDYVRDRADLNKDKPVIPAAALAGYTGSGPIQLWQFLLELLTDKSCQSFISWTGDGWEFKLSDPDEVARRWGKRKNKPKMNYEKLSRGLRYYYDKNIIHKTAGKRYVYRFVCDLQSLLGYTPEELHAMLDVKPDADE
Assay: ETS1 binding intensity (PBM fluorescence) in presence of RUNX1, normalised to ETS1-only experiment (arbitrary fluorescence units); higher = stronger binding
Conditions: ETS1 concentration 1 nM; RUNX1 concentration 25 nM
Everything with ETS1 binding intensity lower than 4000 is f; everything else, including exactly 4000, is t.

Sample answers from the record:
> print(dat)
                        record.sequence  assigned.category
1  CTCCATCTGCCCGGAAAACCGCAGCCGCCCCAACCT                  f
2  TCCACATCCTGCTCCTCGGGTTTGCGGCGAGGACTC                  f
3  TGTATAACATCCTCATGTTCTGTGGGTGAGTTGAGC                  f
4  GCGCACTTCCGGGCTGGTGAACGCGGTGACGTCACC                  f
5  GCAGAACCAGAAACAGGATGTGGGTTCCCCTTTAAG                  t

Decide: ETS1 binding intensity of "CCGCCGCGCGCCGGATGCTAAGACCGCGATTTCCCC" >= 4000?
t

Decide: ETS1 binding intensity of "GAGCAACCAGGAAGAGCTTTGGCTGTGGGCTAAGAT" >= 4000?
f

Decide: ETS1 binding intensity of "CCCGCTACACAAGGCGGATGTGGTACCCTCACTTGT" >= 4000?
t

Decide: ETS1 binding intensity of "ATGCAGAAGCTACAGGAAGAAGCCGCAGGCCAAGCT" >= 4000?
f
